Target: ETB (Rattus norvegicus)
Sequence (P21451 27-442): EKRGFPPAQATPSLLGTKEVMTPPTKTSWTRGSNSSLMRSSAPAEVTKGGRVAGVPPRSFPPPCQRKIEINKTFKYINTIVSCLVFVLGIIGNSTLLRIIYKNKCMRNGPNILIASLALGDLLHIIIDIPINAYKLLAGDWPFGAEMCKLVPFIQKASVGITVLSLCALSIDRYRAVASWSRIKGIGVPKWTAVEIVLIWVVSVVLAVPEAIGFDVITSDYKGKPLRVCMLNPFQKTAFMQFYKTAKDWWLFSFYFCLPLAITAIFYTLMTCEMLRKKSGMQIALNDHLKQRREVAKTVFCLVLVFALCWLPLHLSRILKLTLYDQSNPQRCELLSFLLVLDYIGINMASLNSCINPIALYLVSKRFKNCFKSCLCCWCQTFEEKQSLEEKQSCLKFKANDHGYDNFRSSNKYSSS
Settings: read-out: ERBA-B % inhibition
# inhibition at 10 µM per record follows
# do not omit the unit; it follows the number

Answered cases to consult:
| Compound | inhibition at 10 µM |
| --- | --- |
| CC(C)c1ccc(C2=C(Cc3ccc4c(c3)OCO4)C(O)(c3ccc(Cl)cc3)OC2=O)cc1 (racemic) | 54% |
| CC(C)c1ccc(C2=C(Cc3ccccc3)C(O)(c3ccc(Cl)cc3)OC2=O)cc1 (racemic) | 52% |
| O=C1OC(O)(c2ccc(Cl)cc2)C(Cc2cccc3ccccc23)=C1c1ccc2c(c1)OCO2 (racemic) | 35% |

Turning to the following compound.
Q. # returns recorded inhibition at 10 µM (system: ETB (Rattus norvegicus)) for CC(C)c1ccc(C2=C(Cc3cccc4ccccc34)C(O)(c3ccc(Cl)cc3)OC2=O)cc1 (racemic)
A. 22%

----------
target: UniProtKB A5A8K3; conditions: ERBA-A IC50, [125I]-ET-1, rabbit renal artery vascular smooth muscle cells
Readout Type: pIC50
Recall that pIC50 is obtained by taking minus log10 of the concentration measured in molar.

Answered cases to consult:
| Compound | pIC50 |
| --- | --- |
| CC(C)c1ccc(CC2=C(c3ccc4c(c3)OCO4)C(=O)OC2(O)c2ccc(Cl)cc2)cc1 (racemic) | 5.82 |
| COc1ccc(C2(O)OC(=O)C(c3cc(OC)cc(OC)c3)=C2Cc2cccc(C(F)(F)F)c2)cc1 (stereo not shown) | 7.64 |
| COc1ccc(C2(O)OC(=O)C(c3ccc4c(c3)OCO4)=C2Cc2ccc(OC)c(OC)c2OC)cc1 (stereo not shown) | 7.48 |

Turning to the following compound.
Q. Return reported pIC50; argument: Cc1ccc(C2(O)OC(=O)C(c3ccc4c(c3)OCO4)=C2Cc2ccccc2)cc1C (stereo not shown)
A. 5.89

----------
Target: human ETB receptor (Homo sapiens, UniProt P24530)
Construct: expressed in transfected cells; host or cells: CHO-K1 cells, pRc-CMW (so in the source) expression vector, electroporation; membranes used
Sequence (P24530 27-442): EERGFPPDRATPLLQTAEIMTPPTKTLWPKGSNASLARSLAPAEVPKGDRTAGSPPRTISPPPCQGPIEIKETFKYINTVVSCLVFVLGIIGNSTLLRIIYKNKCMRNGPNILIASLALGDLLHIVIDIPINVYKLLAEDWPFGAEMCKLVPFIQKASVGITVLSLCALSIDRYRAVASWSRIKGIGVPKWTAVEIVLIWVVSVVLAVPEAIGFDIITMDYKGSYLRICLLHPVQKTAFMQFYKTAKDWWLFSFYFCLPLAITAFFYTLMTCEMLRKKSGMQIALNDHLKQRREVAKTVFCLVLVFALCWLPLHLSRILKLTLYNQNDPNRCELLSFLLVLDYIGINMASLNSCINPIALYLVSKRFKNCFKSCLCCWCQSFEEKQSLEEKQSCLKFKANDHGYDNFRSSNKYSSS
Assay: ERBA-B: [125I]-ET-1 binding, recombinant human ETB receptor expressed in CHO-K1 cells
Conditions: human cloned ETB receptor, read-out: ERBA-B IC50, human cloned receptor data
# IC50 per record follows

| Compound | IC50 |
| --- | --- |
| COc1ccc(C/C(C(=O)c2ccc(OC)cc2)=C(/C(=O)O)c2ccc3c(c2)OCO3)cc1 | 2000 nM |
| COC(=O)c1ccc(CC2=C(c3ccc4c(c3)OCO4)C(=O)OC2(O)c2ccc(OC)cc2)cc1 (stereo not drawn) | 2000 nM |
| COc1cc(OC)cc(C2=C(Cc3ccc(OC(C)C)c(C)c3)C(O)(c3ccc(OC)c(C)c3)OC2=O)c1 (stereo not drawn) | 1200 nM |
| COC(=O)Cc1ccc(CC2=C(c3ccc4c(c3)OCO4)C(=O)OC2(O)c2ccc(OC)cc2)cc1 (stereo not drawn) | 1400 nM |
| COc1ccc(C2(O)OC(=O)C(c3cc(OC)cc(OC)c3)=C2Cc2cccc(OC)c2)cc1 (stereo not drawn) | 1200 nM |
| COc1ccc(C2(O)OC(=O)C(c3ccc4c(c3)OCO4)=C2Cc2ccc(OC3CCCCC3)c(C)c2)cc1 (stereo not drawn) | 2600 nM |
| COc1ccc(C2(O)OC(=O)C(c3cc(OC)cc(OC)c3)=C2Cc2cc(OC)c(OC)c(OC)c2)cc1 (stereo not drawn) | 1100 nM |
| CC(C)Oc1ccc(C2(O)OC(=O)C(c3ccc4c(c3)OCO4)=C2Cc2ccccc2)cc1 (stereo not drawn) | 10000 nM |

Q. # returns recorded IC50 (system: human ETB receptor (Homo sapiens, UniProt P24530)) for COC(=O)c1cccc(CC2=C(c3ccc4c(c3)OCO4)C(=O)OC2(O)c2ccc(OC)cc2)c1 (stereo not drawn)
A. 6000 nM

Q. Please answer likewise for COc1ccc(C2(O)OC(=O)C(c3ccc4c(c3)OCO4)=C2Cc2ccccc2Oc2ccccc2)cc1 (stereo not drawn)
A. > 2500 nM

Q. Please answer likewise for `COc1ccc(C(=O)/C(Cc2cc(OC)c(OC)c(OC)c2)=C(\C(=O)O)c2cc(OC)c3c(c2)OCO3)cc1C`
A. 328 nM

Q. Please answer likewise for COc1ccc(C2(O)OC(=O)C(c3ccc4c(c3)OCO4)=C2Cc2ccc3c(c2)OCO3)cc1 (stereo not drawn)
A. 1500 nM

Q. Please answer likewise for COc1ccc(C2(O)OC(=O)C(c3ccc4c(c3)OCO4)=C2CC2CCCC2)cc1 (stereo not drawn)
A. 640 nM

Q. Please answer likewise for COc1ccc(C(=O)/C(Cc2ccc(OC(C)C)cc2)=C(\C(=O)O)c2ccc3c(c2)OCO3)cc1 [Example 353]
A. > 250 nM

Q. Please answer likewise for C=CCOc1cc(CC2=C(c3ccc4c(c3)OCO4)C(=O)OC2(O)c2ccc(OC)cc2OC)ccc1OC (stereo not drawn)
A. 1400 nM

----------
# pIC50 per record follows
Target: ETA (Oryctolagus cuniculus, UniProt A5A8K3)
Sequence (A5A8K3 21-427): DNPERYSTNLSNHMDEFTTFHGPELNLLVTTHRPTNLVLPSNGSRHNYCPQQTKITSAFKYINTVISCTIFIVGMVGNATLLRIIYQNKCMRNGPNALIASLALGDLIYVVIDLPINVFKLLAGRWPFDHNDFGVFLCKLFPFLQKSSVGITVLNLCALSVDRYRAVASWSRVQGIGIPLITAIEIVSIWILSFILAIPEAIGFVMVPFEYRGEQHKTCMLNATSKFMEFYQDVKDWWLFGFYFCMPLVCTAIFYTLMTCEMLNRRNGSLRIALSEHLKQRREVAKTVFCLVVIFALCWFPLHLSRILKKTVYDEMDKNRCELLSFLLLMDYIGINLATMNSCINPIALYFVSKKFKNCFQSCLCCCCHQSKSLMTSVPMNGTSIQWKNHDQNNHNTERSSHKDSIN
Conditions: ERBA-A IC50, [125I]-ET-1, rabbit renal artery vascular smooth muscle cells
Recall that pIC50 is obtained by taking minus log10 of the concentration measured in molar.

Answered cases to consult:
| Compound | Value Observed |
| --- | --- |
| COc1ccc(C2(O)OC(=O)C(c3cc(OC)cc(OC)c3)=C2Cc2cccc(F)c2)cc1 (stereo not shown) | 7.14 |
| COc1cc(OC)cc(C2=C(Cc3ccc(OC(C)C)c(OC)c3)C(O)(c3ccc(OC)c(C)c3)OC2=O)c1 (stereo not shown) | 8.15 |
| COc1ccc(C/C(C(=O)c2ccc(OC)cc2)=C(/C(=O)O)c2ccc3c(c2)OCO3)cc1 | 7.62 |

Turning to the following compound.
Q. Return reported pIC50; argument: CCc1ccc(C2(O)OC(=O)C(c3ccc4c(c3)OCO4)=C2Cc2ccccc2)cc1 (stereo not shown)
A. 6.22

----------
molecular target: ETA (Oryctolagus cuniculus); conditions: ERBA-A IC50, [125I]-ET-1, rabbit renal artery vascular smooth muscle cells
Readout Type: IC50 (nM)
Give the number; nM is assumed, so skip it.

Answered cases to consult:
| Compound | Target Under Test | Value Observed |
| --- | --- | --- |
| COc1ccc(C2(O)OC(=O)C(c3ccc(OC)cc3OC)=C2Cc2ccccc2)cc1 (stereo not shown) | ETA (Oryctolagus cuniculus) | 300 |
| COc1ccc(C2(O)OC(=O)C(c3cc(OC)cc(OC)c3)=C2Cc2cc(Cl)cc(Cl)c2)cc1 (stereo not shown) | ETA (Oryctolagus cuniculus) | 70 |
| COc1ccc(C2(O)OC(=O)C(c3cc(OC)cc(OC)c3)=C2Cc2cccc(OC)c2)cc1 (stereo not shown) | ETA (Oryctolagus cuniculus) | 97 |
| COc1ccc(C2(O)OC(=O)C(c3ccc4c(c3)OCO4)=C2CC2CC=CCC2)cc1 (stereo not shown) | ETA (Oryctolagus cuniculus) | 8.1 |
| COc1ccc(C(=O)/C(Cc2ccc(NC(C)=O)cc2)=C(\C(=O)O)c2ccc3c(c2)OCO3)cc1 | ETA (Oryctolagus cuniculus) | 7.3 |

Q. # returns recorded IC50 (system: ETA (Oryctolagus cuniculus)) for COc1ccc(C2(O)OC(=O)C(c3ccc4c(c3)OCO4)=C2Cc2ccc(NC(C)=O)cc2)cc1C (stereo not shown)
A. 1
